Data provenance is PubChem BioAssay (NCI).

Measured growth inhibition of individual entries
Assay info: NCI Yeast Anticancer Drug Screen. Data for the cln2 rad14 strain (AID 165);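 further: 0% = growth equal to vehicle treated cultures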
Condition summary: S. cerevisiae cln2 rad14 strain, at 5.0 µM (retest, dose inferred, filed as 0.5), stronger effect = higher value
Compounds without any hit were thinned out: in the full panel of roughly 79,000, 15% have a hit.
Assay endpoint: growth inhibition (%)

• CN(C)Cc1ccc(C(C)(C)C)cc1-c1cc(C(C)(C)C)ccc1CN(C)C = 26
• C=C1C(=O)[C@@]23CC[C@H]4[C@@](C)(CCC[C@@]4(C)C(=O)OC)[C@@H]2CC[C@]1(O)C3 = 54
• Oc1ccccc1C(c1cc2c(cc1O)OCO2)N1CCOCC1 (stereo unspecified) = -12
• CC(=O)OC1COC(n2ccc3cc(Br)c([N+](=O)[O-])cc32)C(OC(C)=O)C1OC(C)=O (stereo unspecified) = -45
• COC(=O)NC1CCCCCCCCCCC1I (stereo unspecified) = 19
• O=C1C(c2ccc(Br)cc2)=[N+]([O-])c2ccccc21 = -4
• CC1(c2ccccc2)OC(=O)C=CC1=O (stereo unspecified) = 8
• CC(C)C1=CC23CCC4C(C)(C(=O)O)CCCC4(C)C2CC1C1C(=O)C=CC(=O)C13 (stereo unspecified) = 75
• O=C(Nc1ccc(F)c(Cl)c1)Oc1ccc(Br)cc1Br = -5
• CN(C)CC1CCc2c(ccc3ccccc23)C1=O (stereo unspecified) = 12
• Cn1c(=NCCc2ccccc2)oc2ccc(Cl)cc21 = -4

----------
Assay info: NCI Yeast Anticancer Drug Screen. Data for the mlh1 rad18 strain (AID 175)
Condition summary: S. cerevisiae mlh1 rad18 strain growth inhibition; at 50.0 µM; stronger effect = higher value
The panel holds about 79,000 compounds, 15% with a hit somewhere; the sample as a whole holds those more often.
Use Yes when the recorded growth inhibition is no lower than 90%; use No when it is lower.

- [Fe+2].c1cc[cH-]c1.c1ccc(-c2ccc[cH-]2)cc1: No
- Cc1c(Cl)c(S(N)(=O)=O)cc2c1NC=NS2(=O)=O: No
- CC(=O)Nc1ccc2c(c1)C(S)c1ccccc1-2 (stereo not given): No
- CCc1c(O)c(O)c(C(C)=O)c2c(O)c(-c3c(C)cc4c(CC)c(O)c(O)c(C(C)=O)c4c3O)c(C)cc12: Yes
- CC(=O)Nc1cccc2c1ccc1ccc3ccccc3c12: No
- OC1CCN(c2c3ccccc3nc3ccccc23)CC1: No
- N#Cc1c(Cl)nsc1-c1ccc([N+](=O)[O-])cc1: No
- CC[n+]1cnc(N)c2c(-c3ccc(Cl)cc3)cn(-c3ccc(C)cc3)c21: Yes
- O=C1CNCCCN2CCN(CCCNCC(=O)Nc3ccc(cc3)S(=O)(=O)c3ccc(cc3)NC(=O)CNCCCN3CCN(CCCNCC(=O)Nc4ccc(cc4)S(=O)(=O)c4ccc(cc4)N1)CC3)CC2: Yes
- Cc1nnc2nc3c(nn12)c1ccccc1n3C: No
- O=[N+]([O-])c1ccc(-c2nc(/C=N/N3CCCCC3)cs2)o1: No
- Cc1c(C(C)(C)C)cc(C(C)(C)C)c(O)c1CN(C)Cc1c(C)c(C(C)(C)C)cc(C(C)(C)C)c1O: Yes
- CCOC(=O)Nc1cc2c(cn1)[nH]c1ccccc12: No
- COC(=O)[C@@H](O)[C@]1(C(=O)OC)C2O[C@@H](OC)[C@@H]1CCCCCC[C@H]2O: No
- CN(C)C(=S)/N=c1\ssc(=S)n1C: No
- CC1C(CCC(=O)O)OC2CC3C4CCC5CC(O)CCC5(C)C4CCC3(C)C21 (stereo not given): No
- O=[N+]([O-])c1ccc(CCCCc2ccc([N+](=O)[O-])cc2)cc1: No
- CN(C)c1ccc(N=Nc2ccc3c4c(cccc24)-c2ccccc2-3)cc1: Yes
- Nc1c(C(=O)O)cccc1[N+](=O)[O-]: No
- CCc1cc2c(cc1O)CC[C@@H]1[C@@H]2CC[C@]2(C)[C@@H](O)CC[C@@H]12: No
- O=C(C(=S)c1ccccc1)N(Cc1ccccc1)Cc1ccccc1: Yes
- CC(=O)OC(OC(C)=O)c1ccc2ccc3cccc4ccc1c2c34: No
- CCCCCCCC/C=C\CCCCCCCC(=O)O (tested in a mixture with another compound): Yes
- CCCCCCCCCCCCCCCCCCSSCCCCCCCCCCCCCCCCCC: No
- Cn1c(-c2ccccc2)c(CCNC(=O)C2CCC2)c2ccccc21: No
- C/C(=N/NC(N)=S)C(CN(C)C)C(C1=C(O)c2ccccc2OC1)c1ccccc1 (stereo not given): No
- CCCCOC(=O)c1cnc[nH]c1=O: No
- O=[N+]([O-])c1cc(C(F)(F)F)cc([N+](=O)[O-])c1N1CCCC(n2cccc2)C1 (stereo not given): No
- O=C(N/C(=C\c1ccc(Br)cc1)c1nc2ccccc2[nH]1)c1ccccc1: Yes
- Cc1ccc(/[N+]([O-])=C/c2ccccc2)cc1: No
- C/C=C/C/S(=N\S(=O)(=O)c1ccc(C)cc1)c1ccccc1 (stereo not given): Yes
- O=C(CC(=O)Nc1cccc(Cl)c1)NNCC(=O)Nc1nnc(-c2ccccc2)s1: No
- O=C(CC(c1ccccc1)c1ccccc1)NCCCCN1CCCCCCC1: No
- Sc1c(Br)cc(Br)cc1Br.[Ag]: No
- O=[N+]([O-])c1ccc(/C(=C\c2ccccc2)Cn2ccnc2)cc1: No
- CC(CN1CCOCC1)(CN1CCOCC1)[N+](=O)[O-]: Yes
- CCCCCCCN(CCCCCCC)CC(O)Cc1cc2c(c3ccccc13)CCCC2 (stereo not given): Yes

----------
Assay info: NCI Yeast Anticancer Drug Screen. Data for the rad50 strain (AID 155);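 further: 0% = growth of vehicle-only cultures of the same strain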
Condition summary: S. cerevisiae rad50 strain growth inhibition; at 50.0 µM (retest, dose inferred, filed as 5.0); stronger effect = higher value
Procedure: Growth inhibition of yeast strains with defined genetic alterations is measured as a screen for potential anti-cancer activity. Selected strains with alterations in DNA damage repair or cell cycle control were exposed to compounds and growth inhibition was measured relative to vehicle treated controls. The strain used in this assay is rad50
The panel holds about 79,000 compounds, 15% with a hit somewhere; the sample as a whole holds those more often. Where a SMILES comes first, the peptide text is derived from it. The star is where a group is joined. Cbz = O=C(OCc1ccccc1)*; CH2Cl = ClC*
Assay endpoint: growth inhibition (%)

* COC(=O)c1cn(NS(=O)(=O)c2ccc(OC)cc2)cc1C(=O)OC | 8
* C/C=C1/C=CC2c3[nH]c4ccccc4c3CCN2C1 (stereo not given) | -150
* Clc1ccc(C2NC(c3ccccc3)c3c(ccc4ccccc34)O2)cc1 (stereo not given) | 26
* O=C1OC(CCl)CC12CC(CCl)OC2=O (stereo not given) | 2
* Cc1c2c(c(C)c3c4c(oc13)CCCC4)C=NCC2 | 49
* C/C=C(\CCC1NCCc2c1[nH]c1ccccc21)[Si](C)(C)C (stereo not given) | 99
* CC(C)CC(NC(=O)OCc1ccccc1)C(=O)NC(Cc1ccccc1)C(=O)CCl (stereo not drawn) (Cbz-Leu-Phe-CH2Cl; configuration not given here) | 62
* COc1ccc2c(c1)[n+]([O-])c(-c1ccc(Cl)c(Cl)c1)c(N)[n+]2[O-] | 98
* c1ccc(OCC2c3ccccc3Nc3ccccc32)cc1 | 97
* NC1=NC(c2ccccc2)CC(c2cc(Cl)cc(Br)c2O)=N1 (stereo not given) | 25

----------
Assay info: NCI Yeast Anticancer Drug Screen. Data for the rad50 strain (AID 155);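 further: 0% = growth of vehicle-only cultures of the same strain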
Condition summary: S. cerevisiae rad50 strain growth inhibition; at 5.0 µM (retest, dose inferred, filed as 0.5); stronger effect = higher value
Protocol: Growth inhibition of yeast strains with defined genetic alterations is measured as a screen for potential anti-cancer activity. Selected strains with alterations in DNA damage repair or cell cycle control were exposed to compounds and growth inhibition was measured relative to vehicle treated controls. The strain used in this assay is rad50
The panel holds about 79,000 compounds, 15% with a hit somewhere; the sample as a whole holds those more often.
Assay endpoint: growth inhibition (%)

* O=C1C=C(Br)C(=O)C12CCc1ccccc12 (stereo unspecified) | 99
* CC(C)c1ccc(C(C)C)c(O)c1O | 13
* COC12C=CC(CC1)c1c2c(O)c2ncccc2c1O (stereo unspecified) | -4
* CCCCC(CC)COC(=O)c1cc2ccccc2oc1=O (stereo unspecified) | 3
* CC(/C=C1\CCC(CN(C)C)C1=O)c1cccc(Br)c1 (stereo unspecified) | -11
* O=C(C(=Cn1c(=S)[nH]c2ccc([N+](=O)[O-])cc21)C(=O)c1ccccc1)c1ccccc1 | -10
* CCCCCCCCCCCCCCC(=O)OCC[N+](C)(C)C | 33
* COC(=O)c1ccccc1NC(=O)C(=O)Cc1nc2c3c(ccc2[nH]c1=O)C(=O)c1ccccc1C3=O | 35
* Cc1ccc(S(=O)(=O)N/N=C(\C=C\c2ccccc2)c2ccccc2)cc1 | -1
* O=C(c1ccccc1)C(Br)CCCC(Br)C(=O)c1ccccc1 (stereo unspecified) | 30
* O=C1C(N=Nc2ccccc2)=C(O)C2C3C=CC(C3)C12 (stereo unspecified) | 2
